The origin of these recorded values is the supplement of paper PMC10567573.

Reported protein stability index is given for each of the following variants.
B1: ZNF277 (parent)
chain: ILREELQKQRLREILEQQQQERND

Variants of: B1
TEST_DESCRIPTION: protein stability index of a GFP-peptide fusion (GPS, HEK-293T) (PSI 1-6); higher = more stable;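 note: lentivirally expressed fusions sorted by FACS into six bins by GFP to DsRed ratio, PSI derived from sequencing read proportions per bin multiplied by bin number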
CONDITION_SUMMARY: c terminus: a fixed tail appended
Give the figure by itself; no unit, no explanation.

mutation_descriptor=Q20E recorded_value=5.03
mutation_descriptor=Q9C recorded_value=4.41
mutation_descriptor=E13Q recorded_value=4.22
mutation_descriptor=E16K recorded_value=3.83
mutation_descriptor=Q7L recorded_value=3.64
mutation_descriptor=N23Q recorded_value=4.13
mutation_descriptor=E21F recorded_value=3.4
mutation_descriptor=K8P recorded_value=5.07
mutation_descriptor=I14Y recorded_value=4.34
mutation_descriptor=Q7T recorded_value=3.62

Per the record, I1Y has protein stability index of 4.75

Per the record, E13S has protein stability index of 4.18

Per the record, R3H has protein stability index of 4.46

Per the record, Q7K has protein stability index of 3.46

Per the record, Q19V has protein stability index of 4.44

Per the record, E21W has protein stability index of 2.95

Per the record, L15N has protein stability index of 4.32

Per the record, Q7S has protein stability index of 4.11

Per the record, Q19T has protein stability index of 3.64

Per the record, E16N has protein stability index of 3.89

Per the record, Q9G has protein stability index of 4.05

Per the record, E4A has protein stability index of 3.85

Per the record, E13K has protein stability index of 4.22

Per the record, Q17V has protein stability index of 4.22

Per the record, K8W has protein stability index of 3.82

Per the record, L2M has protein stability index of 4.21

Per the record, Q9T has protein stability index of 4.01
